- Tested on: MS2 coat protein
- TEST: apparent KD of MS2 coat protein; designed switch direction (-1 OFF switch, 1 ON switch): -1; higher = weaker reporter binding
- MEASUREMENT_PARAMETERS: input ligand: microRNA oligo, concentration not stated
Think of 20 nM as a floor: if apparent KD of MS2 coat protein stands on it or above, it is criterion met; beneath it, criterion not met.

- GGAGGACGAGCAGGAUAUUUUCACAUGAGGAUCACCCAUGUGUAAUCAGGGUAAUCCUCCGCCGAAAAGAAGGGUUCGGAAUAA [Mat - Exclusion NG 2 - Mod of JL - D82] (Eterna round: R96, puzzle: Exclusion NG 2): criterion met
- GGAGGAAAGAUAGGAUAUUAGAGGAAGGUGGUGAUAGAGACAUGAGGAUCACCCAUGUAAGGAGGUAAGAAGGGUCGAGGAGGA [AK ExNG2-V2-6] (Eterna round: R96, puzzle: Exclusion NG 2): criterion met
- AGUUCUAACACGUUGGUGUUAGUACCAUAAGCUUGUGAUACAUGAGGAUCACCCAUGUCCUCAUAAGCUCGUCUUAU [salish99_TOv2_r3_1001] (Eterna round: R96, puzzle: Sensor v3, turn-off variant 2): criterion met
- AUUGUUUGAUACCUCUAAUACAUGAGGAUCACCCAUGUUAUCGAGGAUAUGCAUUAGAGUGGUUAGCAGAAGGCGAAGUAAUUG [JR_ExcNG3_Sub030] (Eterna round: R96, puzzle: Exclusion NG 3): criterion not met
- AAUGAUUGACGAGGAUAUUGUGUUAGAUCACGACGAGAAGGCGUCUGUCACAUGAGGAUCACCCAUGUGAGCCUGGUGGAUAGA [Ex NG1 #78] (Eterna round: R96, puzzle: Exclusion NG 1): criterion met
- UUAAUACAUGUAGGAUAUGCGUGGCGAAGCUAUGCAGAAGGACAUGAGGAUCACCCAUGUUCUUGCGUCCGCGUACGGAUGCAA [JL Eng1 1.21 mod 4] (Eterna round: R96, puzzle: Exclusion NG 1): criterion not met
- UUAGAUAGGUCAGGAUAUCGAUUAUUGUAUAGUAUGAUUUACAUGAGGAUCACCCAUGUUAAAUACGAGAAGGGACGUUAGAUU [JR_ExcNG2_Sub022] (Eterna round: R96, puzzle: Exclusion NG 2): criterion not met
- AGAGUACUGCGAGGAUAUACAUGAGGAUCACCCAUGUGGUGGUGUGAGGCUUUGCCUCACACCAUGUAGAAGGCGCAGUACUCA [Mat - Exclusion NG 2 - Mod of JL - D19] (Eterna round: R96, puzzle: Exclusion NG 2): criterion met
- UUGAAACAUACCUCCAUAAACAUGAGGAUCACCCAUGUAAGUGAGGAUAUAGAUUGAUUAGUAUACUAGAAGGCACUUAGAUAU [JR_ExcNG3_Sub043] (Eterna round: R96, puzzle: Exclusion NG 3): criterion not met
- UUUUUAUUUGAAGGAUAUACUUAACAUGAGGAUCACCCAUGUGGUGUUGUGAGUGAGUGAGUUUAGUAGAAGGUCAAUUCUUUU [JMF's solution 85] (Eterna round: R96, puzzle: Exclusion NG 2): criterion met
- UUGUUCCGUGUAGGAUAUUGGUCUCCCUCGGGCCGAGAAGGACAUGAGGAUCACCCAUGUAUGUUAUUAUCGCGCGUGGCGCAU [Design 91] (Eterna round: R96, puzzle: Exclusion NG 1): criterion met
- CAGUACUGAGGAUAUACAUGAGGAUCACCCAUGUGUUCCAGCUAGGAAACUAGCAAGAGUAGAAGGCAGUACUG [salish99_ex3_r3_066] (Eterna round: R96, puzzle: Exclusion 3): criterion not met
- AGCUGUGGCCGAGGAUAUCUCAUAGUCCCAACCGAAAUAUAAUCGGACAUGAGGAUCACCCAUGUAGAGAAGGCGGUCUCAGCA [Eli eng2 - 071] (Eterna round: R96, puzzle: Exclusion NG 2): criterion met
- UUUGAUUGCACAGGAUAUUGUCAUUUGAGUUGUCAAGAAGGGUGUACAUGAGGAUCACCCAUGUUAUGCUUUCCUCGCUCACUU [JR_ExcNG1_Sub009] (Eterna round: R96, puzzle: Exclusion NG 1): criterion not met
- AACUCAUGUUCAGGAUAUCGCGUUCCAAAGACAUGAGAAGGGAACAUGAGGAUCACCCAUGUGCCCGGUCUCAGACCGGGCUUC [Legebi] (Eterna round: R96, puzzle: Exclusion NG 1): criterion met
- GGAUAUAACGUAGGAUAUGAGAGAAACAGACGAUCAGAAGGACGACAUGAGGAUCACCCAUGUGAUCUAUCAAUAUUAUACAUG [Prohibition 97 - Jieux - Exclusion NG 1] (Eterna round: R96, puzzle: Exclusion NG 1): criterion met
- AUAGUAGAAGUGAGGAUAUCGUAGAUUUUAGGAAACGAGAAGGCACAUGAGGAUCACCCAUGUAAGAUGGAGGU [JR_BMOE4_Sub051] (Eterna round: R96, puzzle: Brourd's mod of Exclusion 4): criterion met
- UACAUGAGGAUCACCCAUGUUUUGUCGUGUAUGGUAUUUAUCUAGGAUAUCAGGUUAUUUAUUUAUGAGAAGGAGAAUAUUAAU [JMF's solution 25] (Eterna round: R96, puzzle: Exclusion NG 3): criterion met

---

- Tested on: K4 kissing-loop RNA reporter;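 further: bound reporter read as fluorescence of individual clusters on recovered sequencing chips by microscopy, with normalized cluster intensities fitted with a binding model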
- TEST: apparent KD of K4 kissing-loop reporter; higher = weaker reporter binding
- MEASUREMENT_PARAMETERS: Eterna round: R107; input ligand: none
# key: entry, value: apparent KD of K4 kissing-loop reporter
REPORTED_PROPERTY: apparent KD of K4 kissing-loop reporter (nM)

* CCCAAAAUAUGCAGUGAUGUUGCAACUGAUACCAGUAUCGAAAGAUACCCUUGGCAGCGGAAAACCGCUACGUAAUUUAAAAGGG [Ex Theophylline A K4 18] | 255
* CCUGAUCCUAGUGAUGUUAGGUCCAACGGCCGAGGACCGGUACGGCCGCCACUCGUCAAUUGGAAACAGCCCACGGGCACCGGGU [theeternabot_sameState_KL_Trp_A_19] | 906
* GAUACGUCAGUGAUGUUGAUGUAUUACACAGAGGAUAUCGUAAUGACGAGAAGGCUGAGCCAUCUAGAGAUACGUAAGACGUAUC [FMN A SS t5] | 184

---

- System: MS2 coat protein
- TEST: apparent KD of MS2 coat protein; designed switch direction (-1 OFF switch, 1 ON switch): -1; higher = weaker reporter binding
- MEASUREMENT_PARAMETERS: Eterna round: R95; input ligand: FMN 200 uM
REPORTED_PROPERTY: apparent KD of MS2 coat protein (nM)

- ACUUAUAGAGGAUAUACAGUUUAUUACAUGAGGAUCACCCAUGUUCUUCAAUGUAUAUAAGUAGAAGGCUAAGGAA [EX-5 Malc#5] (puzzle: Exclusion 5): 132
- GCAAGCGACUAGGCUCGUCUUAUAUUGAAAAGAUUGAAAACAUGAGGAUCACCCAUGUAUGUGGGAAAGUUGAAGUG [JR_SV3TOV2_Sub010] (puzzle: Sensor v3, turn-off variant 2): 393
- GAAAAGUGAGGAUAUGGUAAAAAAAAAAGAAAAAAAAAACUCCAGAAGGCACAUGAGGAUCACCCAUGUAAAAG [salish99_ex4_r3_003] (puzzle: Exclusion 4): 41.9

---

- Test system: MS2 coat protein
- TEST: apparent KD of MS2 coat protein; higher = weaker reporter binding
- MEASUREMENT_PARAMETERS: Eterna round: R107; input ligand: theophylline 20 uM
REPORTED_PROPERTY: apparent KD of MS2 coat protein (nM)

* UAACAUGAGGAUCACCCAUGUAUAGUCGAUACCAGCUCAAGGGAGAGCCCUUGGCAGCGACACUGGUAUCCAUGGGUGUGGAUAC [(Ms2)-(Theo)-(T)'-(M)'-(T)''_Design3] | 86.2
* UGUAUGGACUGAAGGAGCGGGUUGAUAACUUGAGGAUCACCCAGGUAAAAGGCGAAAGCCACCCAGGUAGGUCGCAGUCCAUACU | 58.2
* UGUUUGGUGCGCGAGUGUUGGAUAAAUGAUACCAGUGUAGAUGUACGCCCUUGGCAGCGUAUCCGAACAUGAGGAUCACCCAUGU [5.aB] | 44.9
* AUUCAUGGAAACAUGACAUAGGGAUCCGGUCGAGGACCGGUACGGCCGCCACUCGUUUGGAGGCACAUGAGGAUCACCCAUGUUA [SS Tryp A #7] | 118
* AUGCCUAGUGGAAGGAGCGAGGGUCUUCUCAACAUGAGGAUCACCCAUGUUCUUUUACACCCUCAGGUAGGUCGCCAUUGGGACA [Biraanve] | 85.2
* UUCAGCUAGUCGGCCGCCACUACACGAGGAUCACCCGUGUUCCUAAAACACUGCUUCGGCAGUGGUAGGACCGGGACUAGCUGAG | 33
* AGUCUUAUAGGAAGGAGCGCAUACUUCACAUGAGGAUCACCCAUGUCAAGACGUGAGUCAGUGCAGGUAGGUCGCCUAACUAAGA [Same State - Arginine B (Freestyle 13)] | 29.7
* GGGACAUGAGGAUCACCCAUGUACCGGUCCCGAGGACCGGUACGGCCGCCACUCGAUGACCUCAUAGUCUACUUGAGCAGUAGAC [Geeson] | 143
* CUAAUUAAAUCGGCCGCCACUUACUCAUGAGGUAACAACAUGAGGAUCACCCAUGUUUGAGGAUCAAGGACCGGGAUUUAAUUAG [AstrosSSTry#23] | 33.7
* GGAUAGGACAGAAGGAGCGACAUGGCGACGAAAGUCGAAACUUCACAUGAGGAUCACCCAUGUCAGGUAGGUCGCUGUCCUAUCG [ArgXB 7 #MS2Gate #StaticStem] | 63.8
* GGAAUUAAGACUGAUACCAGUCAAGAUAAUCAUAAGAAUAAACAUGAGGAUCACCCAUGUGACCCUUGGCAGCAGACUAAUACCG [Same State Theophylline B GF 26] | 51.1
* GGCCUAUGGCGCGAUACCAGCUUGAGUGUACUGGCCAGGUACAUGAGGAUCACCCAUGUAAGCCCUUGGCAGCGCGUCAUAGGCC [#1 Exclusion - Theophylline B Attempt #23 (HarryS)] | 17.9
